# Test system: SF-539 CNS
# Experiment summary: NCI-60 one-dose screen, 48 h (100 = growth as untreated, 0 = no growth, -100 = all killed)
# Condition set: 10 µM unless noted
# Experimental: Cells are grown in 96 well plates and exposed to the test compound for 48 hours. Compounds are tested at a single concentration, which is 10^-5 M for most compounds. The reported endpoint is percent growth (GI% or GIPRCNT), where numbers from 0 - 100% represent growth inhibition, and numbers from -100% - 0 represent cell death. For example, a value of 40 represents 60% growth inhibition. A value of 0 means no net growth occurred over the course of the experiment. […]
Compounds without any hit were thinned out: in the full panel of roughly 83,000, 20% have a hit.
Exercise: for every item that follows, state its recorded growth.
Number only, in %; omit the unit.

Summary: O=C1CC(N2C(=O)/C(=C/C(Cl)=C\c3ccc([N+](=O)[O-])cc3)SC2=S)C(=O)N1c1ccc(Cl)cc1 (stereo unspecified) , SF-539 CNS, growth = 15.9

Summary: `Cn1c(-c2ccc(Br)cc2)c(O)c(=O)c2c(F)cccc21` , SF-539 CNS, growth = 57.4

Summary: `OB(O)c1cccc(-c2nc3ccc4[nH]ncc4c3c3c2CCCC3)c1` , SF-539 CNS, growth = 20.9

Summary: `CCN(CC)CCSc1nc(-c2ccccc2)c(C#N)c(=O)[nH]1` , SF-539 CNS, growth = 100

Summary: `O=C(CSc1nc(-c2ccccc2)[nH]c1S(=O)(=O)c1ccccc1)NC1CC1` , SF-539 CNS, growth = 103

Summary: `COc1ccc(N2CCC(=O)NC2=S)cc1` , SF-539 CNS, growth = 99.4

Summary: `Oc1ccc(CCn2c(O)c(/C=C3\CN=c4ccccc4=N3)sc2=S)cc1` , SF-539 CNS, growth = 20.7

Summary: C[C@@H]1CCC[C@H]1CC(N)C(=O)O (stereo partly specified) , SF-539 CNS, growth = 105

Summary: `COc1ccc2[nH]cc(-c3nc(-c4c[nH]c5ccncc45)cs3)c2c1` , SF-539 CNS, growth = -83.4

Summary: `CC(=O)c1cc(O)c2ccccc2c1O` , SF-539 CNS, growth = 97.5

Summary: `N#Cc1c(N)nnn1Cc1cc(=O)oc2c1ccc1ccccc12` , SF-539 CNS, growth = 113

Summary: `C=C1C(=O)O[C@H]2[C@H]1CC/C(COC(=O)CCSCCC(=O)OC/C1=C/CC[C@@]3(C)O[C@H]3[C@H]3OC(=O)C(=C)[C@@H]3CC1)=C\CC[C@@]1(C)O[C@@H]21` , SF-539 CNS, growth = -15.1

Summary: `O=C(CCCCCCN1CC(=O)N2[C@H](c3cc(Br)cs3)c3[nH]c4ccccc4c3C[C@H]2C1=O)NO` , SF-539 CNS, growth = 43.3

Summary: `O=C(O)CNC1=C(Cl)C(=O)c2ccccc2C1=O` , SF-539 CNS, growth = 123

Summary: `O=C1/C(=C/c2ccc(F)cc2)COc2ccc(O)c(O)c21` , SF-539 CNS, growth = -62.1

Summary: `COc1cc(OC)c2sc(-c3ccc(-n4cncc4-c4ccc(OC)c(OC)c4)cc3)nc2c1` , SF-539 CNS, growth = 66.5

----------
# System: UO-31 renal
# Experiment summary: NCI-60 one-dose screen, 48 h
# Condition set: 10 µM unless noted
This is part of a sample that, as a whole, favours compounds with a hit. Of some 83,000 tested, about 20% had one in any assay. Active and inactive are the calls of the source. How the source made its calls: active means growth percent below 10; inactive means the rest.
Valid outcomes are listed here; reply with one: YES for active, NO for inactive

Enquiry: I'd appreciate the recorded outcome for `C#COc1cccc(Nc2ncnc3ncc(NC(=O)CCl)cc23)c1` from this test.
Return: YES

Enquiry: I'd appreciate the recorded outcome for `O=C(NCc1ccccc1)Nc1ccccc1CNc1nc(Nc2ccc(OCCN3CCCC3)cc2)ncc1Cl` from this test.
Return: NO

Enquiry: I'd appreciate the recorded outcome for `O=C(CSc1nnc2n1S(=O)(=O)c1ccccc1N2c1ccccc1)Nc1nc2ccc(F)cc2s1` from this test.
Return: YES

Enquiry: I'd appreciate the recorded outcome for `CCCc1cc(NC)nc(S(=O)(=O)CC)n1` from this test.
Return: NO

Enquiry: I'd appreciate the recorded outcome for O=C1CC(N2C(=O)/C(=C/C(Cl)=C\c3ccc([N+](=O)[O-])cc3)SC2=S)C(=O)N1c1ccc(Cl)cc1 (stereo not given) from this test.
Return: YES

Enquiry: I'd appreciate the recorded outcome for `OCCNCCCOc1ccc2ncnc(Nc3ccc(Oc4cccc(C(F)(F)F)c4)c(Cl)c3)c2c1` from this test.
Return: NO

Enquiry: I'd appreciate the recorded outcome for `Cn1c(=O)c2[nH]c(N/N=C/c3ccccc3Br)nc2n(C)c1=O` from this test.
Return: NO

Enquiry: I'd appreciate the recorded outcome for `O=C(CSc1nc(-c2ccccc2)[nH]c1S(=O)(=O)c1ccccc1)NC1CC1` from this test.
Return: NO

Enquiry: I'd appreciate the recorded outcome for `Cc1nn(-c2ccccc2)c(Oc2ccccn2)c1-c1nc2ccccc2s1` from this test.
Return: NO

Enquiry: I'd appreciate the recorded outcome for `O=C1c2cccc3cccc(c23)C(=O)N1N1C(=O)c2cccc3c(N4CCOCC4)ccc(c23)C1=O` from this test.
Return: NO

----------
# Tested on: EKVX NSCLC
# Experiment summary: NCI-60 one-dose screen, 48 h (100 = growth as untreated, 0 = no growth, -100 = all killed)
# Condition set: 10 µM unless noted
This is part of a sample that, as a whole, favours compounds with a hit. Of some 83,000 tested, about 20% had one in any assay.
Reported metric: growth (%)
Number only, in %; omit the unit.

Short answer for `CCCCCOc1ccc(C(=O)/C(Br)=C/C(=O)O)cc1` : growth was 103

Short answer for `CS(=O)(=O)Nc1cc(-c2ccc3ncnc(Nc4ccc5c(cnn5Cc5ccccn5)c4)c3c2)cnc1Cl` : growth was 80.8

Short answer for `OCCNCCCOc1ccc2ncnc(Nc3ccc(Oc4cccc(C(F)(F)F)c4)c(Cl)c3)c2c1` : growth was 27

Short answer for `COc1cccc(NC(=O)Cn2cc(CN3CCN(c4ccnc5cc(Cl)ccc45)CC3)nn2)c1` : growth was 76.7

Short answer for COc1ccc(CC(C#N)c2cc3ccccc3[nH]2)cc1 (configuration not stated) : growth was 95.9

Short answer for `CC(C)(C)n1cc(-c2ccnc(NCCNS(=O)(=O)c3cccc(F)c3)c2)c(-c2ccccc2)n1` : growth was 70.6

Short answer for N#CC1=C(N)Oc2c(sc3c(F)cccc23)C1c1ccc(F)cc1 (configuration not stated) : growth was 47.3

Short answer for `CS(=O)(=O)C1=CN(CCO)C(=O)N2CCCN=C12` : growth was 100

Short answer for `CCOC(=O)c1c(NC(=O)c2ccc(C(C)C)cc2)sc2c(CN(C)C)c(O)ccc12` : growth was 97.1

Short answer for `COc1ccc(-c2nnc3n(C)c(=O)c4ccccc4n23)cc1N` : growth was 55.7

Short answer for `O=C(O)c1[nH]c(=O)[nH]c(=O)c1[N+](=O)[O-]` : growth was 119

Short answer for `N#Cc1c(-c2cccs2)cc(-c2cccnc2)[nH]c1=O` : growth was 105

Short answer for COc1cc2c(c(OC)c1OC)CCC(c1cccc(C(=O)Nc3cccc(Br)c3)c1)O2 (configuration not stated) : growth was 50.4

Short answer for `Oc1ccc(CCn2c(O)c(/C=C3\CN=c4ccccc4=N3)sc2=S)cc1` : growth was 80.8

Short answer for `COC(=O)c1c2c(c(C)[n+]([O-])c1C)C(=O)C(NCc1ccc(Cl)cc1)=CC2=O` : growth was 70.9

Short answer for `COCCn1cc(-c2nc(-c3cc4cccnc4n3CCOC)cs2)c2cc(OC)ccc21` : growth was 26

Short answer for Nc1c(C(=O)Nc2ccccc2Cl)sc2nc3c(cc12)C(O)CCC3 (configuration not stated) : growth was 40.7

Short answer for `COc1ccc(-c2csc(NC(=O)CSc3nc(-c4ccccc4)cc(=O)[nH]3)n2)cc1` : growth was 58.1

Short answer for `N#C/C(=C/c1ccc([N+](=O)[O-])cc1)n1nnc2cc(F)c(F)cc21` : growth was 103

Short answer for CC(C)NC1CCC(Nc2ccnc3cc(Cl)ccc23)CC1 (configuration not stated) : growth was 97.1

Short answer for `CCOC(=O)c1cc2c(=O)oc3ccccc3c2oc1=O` : growth was 111

Short answer for `CCCNC(=O)Oc1ccc(/C(=C(/C)Cc2ccc(OC)cc2)c2ccc(OCCCN(C)C)cc2)cc1` : growth was 85.7

----------
# Test system: SW-620 colon
# Experiment summary: NCI-60 one-dose screen, 48 h
# Condition set: 10 µM unless noted
About 83,000 compounds went through this panel and 20% of them were active in at least one assay; those are over-represented in the sample as a whole. Active and inactive are the calls of the source. Rule for the calls: active = growth percent below 10; inactive = the rest.
Valid outcomes are listed here; reply with one: Y (active), N (inactive)

Enquiry: I'd appreciate the recorded outcome for `Cc1cccnc1NC(=S)Nc1ncccc1C` from this test.
Return: N

Enquiry: I'd appreciate the recorded outcome for N#CC1=C(N)Oc2c(sc3c(Br)cccc23)C1c1ccc(F)cc1 (configuration not stated) from this test.
Return: N

Enquiry: I'd appreciate the recorded outcome for `CCC(=C(c1ccc(OCCN2CCCC2)cc1)c1ccc(OCCN2CCCC2)cc1)c1ccc(Cl)cc1` from this test.
Return: Y

Enquiry: I'd appreciate the recorded outcome for `N=C(N)c1ccc(-c2ccc(-c3ccc(Cl)cc3)s2)nc1` from this test.
Return: Y

Enquiry: I'd appreciate the recorded outcome for `O=C1c2cc(Cl)ccc2S(=O)(=O)c2c(NCCCNCCO)nc3ccccc3c21` from this test.
Return: Y

Enquiry: I'd appreciate the recorded outcome for `O=C1/C(=C/c2ccc(Cl)c(Cl)c2)CN(C(=O)C(Cl)Cl)C/C1=C\c1ccc(Cl)c(Cl)c1` from this test.
Return: Y

Enquiry: I'd appreciate the recorded outcome for `COc1cccc(NC(=O)Cn2cc(CN3CCN(c4ccnc5cc(Cl)ccc45)CC3)nn2)c1` from this test.
Return: N

Enquiry: I'd appreciate the recorded outcome for `CN(C)c1ccc(Nc2cc(-c3cccc(OC(F)(F)F)c3)nc3ccc(N4CCCC4)cc23)cc1` from this test.
Return: Y

Enquiry: I'd appreciate the recorded outcome for `N#Cc1c(N)nnn1Cc1cc(=O)oc2c1ccc1ccccc12` from this test.
Return: N

Enquiry: I'd appreciate the recorded outcome for `C/C(=C(/c1ccc(Cl)cc1)c1ccc(OCCN2CCCC2)cc1)c1ccc(Cl)cc1` from this test.
Return: N

Enquiry: I'd appreciate the recorded outcome for `COc1ccc2[nH]cc(C(c3cc(F)cc(F)c3)c3c[nH]c4ccc(OC)cc34)c2c1` from this test.
Return: N

Enquiry: I'd appreciate the recorded outcome for CCCC(=O)NC(c1ccc2c(c1)OCO2)c1ccc2cccnc2c1O (configuration not stated) from this test.
Return: N

Enquiry: I'd appreciate the recorded outcome for `C=C(C)[C@@H]1CC[C@]2(C)[C@H](CC=C3[C@@H]4[C@H](C)[C@@H](C)CC[C@]4(CO)CC[C@]32C)[C@@]1(C)CCCN` from this test.
Return: Y

Enquiry: I'd appreciate the recorded outcome for `Cn1c(=O)c2c(nc(NC3=NS(=O)(=O)c4ccccc43)n2CC(=O)N2CCc3ccccc32)n(C)c1=O` from this test.
Return: N

Enquiry: I'd appreciate the recorded outcome for `CCOC(=O)c1c(C)c2c(n1C)CSc1cc(C(=O)c3ccccc3)c(=O)[nH]c1-2` from this test.
Return: N

Enquiry: I'd appreciate the recorded outcome for `Cc1noc(C)c1C(=O)OCc1coc2ccccc2c1=O` from this test.
Return: N

Enquiry: I'd appreciate the recorded outcome for `O=C(NCCCCNC(=O)OCc1ccc2c(Cl)cc(Cl)c(O)c2n1)OCc1ccc2c(Cl)cc(Cl)c(O)c2n1` from this test.
Return: N
